B1: F1*; the commonest letter at each place (parent)
chain: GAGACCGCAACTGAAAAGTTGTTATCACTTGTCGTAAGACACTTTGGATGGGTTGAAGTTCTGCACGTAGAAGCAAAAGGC

Variants of: B1
Assay: fraction ligated after 30 min (ligated reads / total reads); higher = more ligase activity
Details: with F1*sub RNA substrate (template-directed ligation), 42 °C
Decision: fraction ligated >= 0.8 yields 1, all other cases yield 0.

Ask: Has A27G T35A a recorded fraction ligated greater than or equal to 0.8?
Result: 1

Ask: Another variant to check: T43C T45C
Result: 0

Ask: Then G38T T49C ?
Result: 0

Ask: Also check T25G G31T
Result: 0

Ask: Try the variant C33A G38A
Result: 1

Ask: Now the same for T30A T43A
Result: 1

Ask: // same read-out, input: G31A A36T
Result: 1

Ask: Ok, now T25G G31C
Result: 0

Alright, here's another variant for you.
Ask: Check if fraction ligated >= 0.8 (inclusive). Item: T23A C40T
Result: 1
